Quick record: pIC50, HCV NS5B polymerase (Hepatitis C virus genotype 1b, UniProt P26663).
pIC50: −log10 of the molar value.
outcome_measure: pIC50

INSERT INTO assay_data (smiles_data, outcome_measure, result) VALUES
  ('CC(C)CCn1nc(CCC2OCCCO2)c(O)c(C2=Nc3ccc(NS(C)(=O)=O)cc3S(=O)(=O)N2)c1=O', 'pIC50', '6.00 to 7.00'),
  ('CC(C)CCn1nc(-c2cncs2)c(O)c(C2=Nc3ccc(NS(=O)(=O)C(C)(C)C)cc3S(=O)(=O)N2)c1=O', 'pIC50', '> 7.00'),
  ('COCCn1nc(-c2cccs2)c(O)c(C2=NS(=O)(=O)c3cc(NS(C)(=O)=O)ccc3N2)c1=O', 'pIC50', '> 7.00'),
  ('CS(=O)(=O)Nc1ccc2c(c1)S(=O)(=O)NC(c1c(O)c(-c3ccccc3)nn(CC3CC3)c1=O)=N2', 'pIC50', '6.00 to 7.00'),
  ('CS(=O)(=O)Nc1ccc2c(c1)S(=O)(=O)N=C(c1c(O)c(-c3cccs3)nn(Cc3ccccc3)c1=O)N2', 'pIC50', '> 7.00'),
  ('C/C(=C\c1nn(CCC(C)C)c(=O)c(C2=NS(=O)(=O)c3cc(NS(C)(=O)=O)ccc3N2)c1O)C(F)(F)F', 'pIC50', '6.00 to 7.00'),
  ('CN(c1ccc2c(c1)S(=O)(=O)NC(c1c(O)c(CC(C)(C)C)nn(CC3CCC3)c1=O)=N2)S(C)(=O)=O', 'pIC50', '5.00 to 6.00'),
  ('CC(C)CCn1nc(CC2CCC2)c(O)c(C2=NS(=O)(=O)c3cc(NS(C)(=O)=O)ccc3N2)c1=O', 'pIC50', '6.00 to 7.00');
